Hi there, I'd appreciate the recorded GI50 for every entry that follows.
System: HOP-62
measurement protocol: NCI tumour cell line growth inhibition, 48 h
Calls of active or inactive are those of the source. Rule as the data show it: active = GI50 up to about 1.1 µM and inactive = higher.

Recorded GI50 for COC(=O)C(=NNc1ccccc1[N+](=O)[O-])C(=O)OC , please?
> 100 µM (inactive)

Recorded GI50 for Cc1ccc(N(Cc2ccccc2)Cc2ccccc2)cc1 , please?
26.7 µM (inactive)

Recorded GI50 for Cc1cn(C2CC(O)C(COC(=O)NCCC(F)(F)C(F)(F)C(F)(F)C(F)(F)F)O2)c(=O)[nH]c1=O (centres undefined) , please?
> 100 µM (inactive)

Recorded GI50 for CC1(C)N=c2c(ncn2Cc2ccccc2)=C(C(N)=O)N1 , please?
> 100 µM (inactive)

Recorded GI50 for O=[N+]([O-])c1c(Br)cc(Br)c2c1Nc1c(ccc(Cl)c1Cl)S2 , please?
18.8 µM (inactive)

Recorded GI50 for COC(=O)/C=C/c1cnc2c(c1)oc(=O)n2C , please?
> 100 µM (inactive)

Recorded GI50 for NC(=O)c1c[se]c(C2OC(CO)C(O)C2O)n1 (centres undefined) , please?
10.2 µM (inactive)

Recorded GI50 for COc1ccc(C(=O)N2CCc3c([nH]c4ccccc34)C2C(=O)O)o1 (centres undefined) , please?
> 10 µM (inactive)

Recorded GI50 for N#CCc1nc(-c2cc3ccccc3oc2=O)cs1 , please?
62.7 µM (inactive)

Recorded GI50 for COc1cc2c(cc1OC)C(N)CC2=O (centres undefined) , please?
> 100 µM (inactive)

Recorded GI50 for C[N+]1(C)C[C@@H](O)C[C@@H]1C(=O)[O-] , please?
> 100 µM (inactive)

Recorded GI50 for CC1(C)OC(=O)C(c2ccsc2)C(=O)O1 , please?
> 100 µM (inactive)

Recorded GI50 for CC1=CC(O)C(C(O)(C(F)(F)F)C(F)(F)F)C(C)(C)C1 (centres undefined) , please?
> 10 µM (inactive)

Recorded GI50 for CNc1nnc(CCCCCCCCc2nnc(NC)o2)o1 , please?
35.3 µM (inactive)

Recorded GI50 for CC[C@@]1(O)C[C@H](OC2CC(N(C)C)C(O)C(C)O2)c2c(O)c3c(c(O)c2[C@H]1OC1CC(N(C)C)C(O)C(C)O1)C(=O)c1cccc(O)c1C3=O (some centres undefined) , please?
0.0404 µM (active)

Recorded GI50 for Cc1n[nH]c(=O)c2c3c([nH]c12)-c1ccccc1C3 , please?
> 100 µM (inactive)

Recorded GI50 for NS(=O)(=O)c1ccc(NC2(C(=O)O)CCCC2)cc1 , please?
> 100 µM (inactive)

Recorded GI50 for COC(=O)CCCC(=O)/C(=N\Nc1ccc(Cl)cc1)Nc1c(Cl)cccc1Cl , please?
> 67.6 µM (inactive)

Recorded GI50 for N#Cc1cnn2ccn(C3OC(COC(=O)c4ccccc4)C(OC(=O)c4ccccc4)C3OC(=O)c3ccccc3)c12 (centres undefined) , please?
> 21.5 µM (inactive)

Recorded GI50 for c1ccc2c(c1)ccc1nc3ccccn3c12 , please?
> 100 µM (inactive)

Recorded GI50 for CCCC/C(C)=N/NC(N)=S , please?
> 100 µM (inactive)

Recorded GI50 for O=[N+]([O-])c1ccc(C2=Nn3c(nnc3-c3ccccc3)SC2)o1 , please?
44.3 µM (inactive)

Recorded GI50 for O=C1c2ccccc2-c2ccc(O)cc21 , please?
36.4 µM (inactive)

Recorded GI50 for O=S1(=O)c2ccccc2N2C(c3ccccc3)=NOC2(c2ccccc2)CC1c1ccc(Br)cc1 (centres undefined) , please?
> 100 µM (inactive)

Recorded GI50 for COC(=O)c1c(O)ccc(O)c1C(C(C)=O)C(C)=O , please?
> 100 µM (inactive)

Recorded GI50 for CCc1ccccc1NC(=O)c1cccc([N+](=O)[O-])c1O , please?
19 µM (inactive)

Recorded GI50 for O=C(Cn1c(=O)oc2ccc(C(=O)c3ccccc3Cl)cc21)c1ccc([N+](=O)[O-])cc1 , please?
25.1 µM (inactive)

Recorded GI50 for Cc1nccn1S(=O)(=O)c1ccc(Cl)cc1 , please?
58.2 µM (inactive)

Recorded GI50 for CCC/C(=N\NC(=O)c1cc2ccccc2cc1O)C(CC)C(=O)CCC(=O)N(Cc1ccccc1)Cc1ccccc1 (centres undefined) , please?
81.1 µM (inactive)

Recorded GI50 for COc1c(Cl)nc2ccccc2c1N=[N+]=[N-] , please?
39.7 µM (inactive)

Recorded GI50 for O=c1cc(NCC2CCCCC2)[nH]c(=O)[nH]1 , please?
> 100 µM (inactive)

Recorded GI50 for C[N+]12c3ccccc3O[B-]1(c1ccccc1)Oc1ccccc12 (centres undefined) , please?
72.1 µM (inactive)

Recorded GI50 for COc1ccc(-c2c3ccccc3c(-c3ccc(OC)cc3)c3ccccc23)cc1 , please?
> 100 µM (inactive)

Recorded GI50 for O=S1(=O)OCCOS(=O)(=O)C1Cl , please?
> 100 µM (inactive)

Recorded GI50 for O=C(Cc1ccccc1)NN1C(=O)C(Cl)C1c1ccccc1O (centres undefined) , please?
12.6 µM (inactive)

Recorded GI50 for COc1cc2c[n+](C)c3c4cc(OC)c(OC)cc4c(OC)cc3c2cc1OC , please?
16.4 µM (inactive)

Recorded GI50 for [N-]=[N+]=Nc1c(N2CCOCC2)c(Cl)nc2ccccc12 , please?
58.6 µM (inactive)

Recorded GI50 for Clc1ccc(C2=Cc3nc2c(-c2ccccc2)c2ccc([nH]2)c(-c2ccccc2)c2nc(c(-c4ccccc4)c4ccc([nH]4)c3-c3ccccc3)C=C2)cc1 , please?
> 62.5 µM (inactive)

Recorded GI50 for COc1ccc(/C=C/C(=O)N[C@@H]2C(=O)N3[C@@H]2SC(C)(C)[C@@H]3C(=O)O)cc1 , please?
> 100 µM (inactive)

Recorded GI50 for O=C(CC(=O)c1ccc([N+](=O)[O-])cc1)C(=O)Nc1nccs1 , please?
> 100 µM (inactive)

Recorded GI50 for O=[N+]([O-])c1ccc(C2=Nn3cnnc3SC2)o1 , please?
38.2 µM (inactive)

Recorded GI50 for Cc1c(-c2nc(N)c(C#N)c(N)c2C#N)c(=O)oc2ccccc12 , please?
67.3 µM (inactive)

Recorded GI50 for COc1ccc2c3c(ccc2c1)NC(C(=O)O)CC3 (centres undefined) , please?
80.5 µM (inactive)

Recorded GI50 for O=C(O)[C@H](NS(=O)(=O)c1ccc(F)cc1)c1ccccc1 , please?
> 100 µM (inactive)

* * *

Test system: NCI-H23
measurement protocol: NCI tumour cell line growth inhibition, 48 h
Structures can show the parent of a compound that is named as a salt. Activity calls are given as the source filed them. No stated cut-off is given here; in the data, active = GI50 up to about 1.1 µM and inactive = higher.
value type: GI50

Recorded GI50 for c1ccc2c(c1)ccc1nc3ccccn3c12 , please?
> 100 µM (inactive)

Recorded GI50 for CSC(=S)N/N=C(\C)c1cccc(C)n1 , please?
0.975 µM (active)

Recorded GI50 for N#CC(c1nc2ccccc2nc1Cl)S(=O)(=O)c1ccccc1 (stereo unspecified) , please?
37.5 µM (inactive)

Recorded GI50 for O=c1[nH]cnc2[nH]nnc12 , please?
35.6 µM (inactive)

Recorded GI50 for N#CC1=C(N)OC(c2cccc([N+](=O)[O-])c2)C1(C#N)C#N (stereo unspecified) , please?
21.2 µM (inactive)

Recorded GI50 for COc1cc2c(cc1OC)CC(=O)c1cc(OC)c(OC)cc1/C=C\2 , please?
> 12.5 µM (inactive)

Recorded GI50 for S=C(N/N=C(/c1ccccc1)c1ccccn1)N1CCCCCC1 , please?
0.0538 µM (active)

Recorded GI50 for O=C(Cc1ccc(O)c(O)c1)NCc1c[nH]c2ccccc12 , please?
39.1 µM (inactive)

Recorded GI50 for Cc1cc(S(=O)(=O)Nc2nc(Nc3ccc4ccccc4c3)n[nH]2)c(S)cc1Cl , please?
43 µM (inactive)

Recorded GI50 for NCCCn1c2ccccc2c2c3c(c4c(c21)CCC(O)CC4)C(=O)NC3=O (stereo unspecified) , please?
2.45 µM (inactive)

Recorded GI50 for O=C1C(c2ccccc2)=[N+]([O-])c2cc([N+](=O)[O-])ccc21 , please?
43.6 µM (inactive)

Recorded GI50 for CC(=O)/C=C\C(=O)NNS(=O)(=O)c1ccc(C)cc1 , please?
> 100 µM (inactive)

Recorded GI50 for COc1cc(OC)c([C@@H]2OC(=O)C3C2C(=O)O[C@H]3c2cc(OC)c(OC)cc2OC)cc1OC (stereo partly specified) , please?
> 100 µM (inactive)

Recorded GI50 for C=C1C(OC)=C(OC)C(=O)c2[nH]c3c(OC)cc([N+](=O)[O-])cc3c21 , please?
> 100 µM (inactive)

Recorded GI50 for O=[N+]([O-])c1ccc2nnnn2c1 , please?
22.6 µM (inactive)

Recorded GI50 for COC(=O)Nc1nc(=O)c2ccccc2[nH]1 , please?
> 100 µM (inactive)

Recorded GI50 for NCCCCN [PUTRESCINE HYDROCHLORIDE] , please?
> 100 µM (inactive)

Recorded GI50 for CC[C@@]1(O)C(=O)OCc2c1cc1n(c2=O)Cc2c-1nc1ccccc1c2Cl , please?
< 0.01 µM (active)

Recorded GI50 for C=C1C(=O)OC2/C=C(\C)CC(O)/C=C(/CO)CC(OC(=O)/C(C)=C/C)C12 (stereo unspecified) , please?
27.7 µM (inactive)

Recorded GI50 for COC(=O)[C@@H]1C[C@]2(CC=C(C)C)c3ccccc3N(S(=O)(=O)c3ccccc3)[C@@H]2N1C(=O)OC , please?
> 100 µM (inactive)

Recorded GI50 for O/N=C1/C(=C/c2ccc(OCc3ccccc3)cc2)CCCC1C(NO)c1ccc(OCc2ccccc2)cc1 (stereo unspecified) , please?
12.7 µM (inactive)

Recorded GI50 for O=[N+]([O-])c1ccc(Cl)c(CNc2ncnc3c2ncn3C2CCCCO2)c1 (stereo unspecified) , please?
31.8 µM (inactive)

Recorded GI50 for C=C1[C@@H](C)[C@H]2[C@H](Cc3ccccc3)NC(=O)[C@]23OC(=O)/C=C/[C@H](O)CCC[C@@H](C)C/C=C/[C@H]3[C@@H]1O , please?
7 µM (inactive)

Recorded GI50 for O=c1cc(-c2ccccc2)oc2cc(OCCCOc3ccc4c(=O)cc(-c5ccccc5)oc4c3)ccc12 , please?
> 100 µM (inactive)

Recorded GI50 for CN(C)c1ccc(C=C2C(=O)NC(=S)NC2=O)c2ccccc12 , please?
71.9 µM (inactive)

Recorded GI50 for O=C(Nc1ccc(Cl)cc1)c1cc2c(cc1Cl)SC(NNCCO)=NS2(=O)=O , please?
> 100 µM (inactive)

Recorded GI50 for O=C(Nc1ccc([N+](=O)[O-])cc1[N+](=O)[O-])C(=O)C(C(=O)c1ccc(Cl)c(Cl)c1)C1OC(=O)c2ccccc21 (stereo unspecified) , please?
17.3 µM (inactive)

Recorded GI50 for NC(=O)c1c(-c2ccccc2)c(-c2ccccc2)cc2c(=O)c3ccccc3[nH]c12 , please?
17.5 µM (inactive)

Recorded GI50 for CC(=O)Nc1[nH]n(C)c(=O)c1-c1nnc(C)s1 , please?
> 100 µM (inactive)

Recorded GI50 for CC(=O)OCC1OC(O[C@@H]2C[C@H]3C(C)(C)[C@@H](OC(C)=O)CC[C@]3(C)[C@H]3CC[C@]45C[C@]4(CC[C@H]5[C@@H](C)C[C@@H](O)[C@H](O)C(C)(C)F)[C@@]32C)C(O)C(O)C1O (stereo partly specified) , please?
2.22 µM (inactive)

Recorded GI50 for CN/C(=N/C#N)NCc1ccccc1 , please?
> 100 µM (inactive)

Recorded GI50 for CCN(CC)CCSc1c2cc(OC)ccc2nc2ccc(OC)cc12 , please?
3.3 µM (inactive)

Recorded GI50 for Brc1ccc(/N=N/c2ccc3ccccc3n2)cc1 , please?
27.8 µM (inactive)

Recorded GI50 for CC1=C(C(=O)Nc2ccccc2C)C(c2ccccc2C)C(C(=O)Nc2ccccc2C)=C(C)N1 , please?
21.5 µM (inactive)

Recorded GI50 for Cc1nc(-c2cccnc2)sc1C(=O)/C=C/c1cccc([N+](=O)[O-])c1 , please?
> 100 µM (inactive)

Recorded GI50 for CC(=O)O[C@H]1CN(S(=O)(=O)c2ccc(C)cc2)C[C@@H]1C1CCCCC1 , please?
36.3 µM (inactive)

Recorded GI50 for COc1cc([N+](=O)[O-])ccc1NC(=O)C(F)(F)F , please?
> 100 µM (inactive)

Recorded GI50 for COc1ccc([N+]2=NC(c3ccc([N+](=O)[O-])cc3)=NN(c3ccccc3)C2)cc1 , please?
55.8 µM (inactive)

Recorded GI50 for Cc1nccn1S(=O)(=O)c1ccc(Cl)cc1 , please?
39.6 µM (inactive)

Recorded GI50 for CCc1ccccc1NC(=O)c1cccc([N+](=O)[O-])c1O , please?
18.7 µM (inactive)

Recorded GI50 for COc1ccc(/C=C/C(=O)N[C@@H]2C(=O)N3[C@@H]2SC(C)(C)[C@@H]3C(=O)O)cc1 , please?
> 100 µM (inactive)
